- Tested on: SF295 (human glioblastoma cells)
- TEST SUMMARY: MTT cytotoxicity, SF295 cells
- Assay type: cell-based
- EXPERIMENTAL SETUP: Homo sapiens, SF-295, 72 h exposure, three independent experiments, read-out: Cytotoxic activity IC50 (95% CI) SF295
What IC50 was measured for each of the following?

[ask] Entry "COC1=C(Cn2cc(-c3ccc([N+](=O)[O-])cc3)nn2)C(=O)c2ccccc2C1=O" , system SF295 (human glioblastoma cells): what IC50 was measured?
[reply] > 10 µM

[ask] Query IC50 on SF295 (human glioblastoma cells) for "COC1=C(Cn2cc(-c3ccc(OC)cc3)nn2)C(=O)c2ccccc2C1=O"
[reply] > 10 µM

[ask] Lab request: please report IC50 under test system SF295 (human glioblastoma cells) for CC1(C)OC2=C(C(=O)C(=O)c3ccccc32)C(n2cc(CSc3ccccc3)nn2)C1Br (stereo not drawn)
[reply] 2.34 µM

[ask] Give IC50 (SF295 (human glioblastoma cells)) of the following compound: "COC1=C(Cn2cc(-c3ccccc3)nn2)C(=O)c2ccccc2C1=O"
[reply] > 10 µM

[ask] What value of IC50 on SF295 (human glioblastoma cells) does "COC1=C(Cn2cc(-c3ccc(Br)cc3)nn2)C(=O)c2ccccc2C1=O" have?
[reply] > 10 µM

[ask] Give recorded IC50 with SF295 (human glioblastoma cells) for the following compound: "O=C1C=C([Se]c2ccc(Cl)cc2)C(=O)c2ccccc21"
[reply] > 10 µM

[ask] What measured IC50 is associated with "COC1=C(Cn2cc(C[Se]c3ccccc3)nn2)C(=O)c2ccccc2C1=O" on SF295 (human glioblastoma cells)?
[reply] > 10 µM

[ask] Find IC50 (SF295 (human glioblastoma cells)) for the entry "COC1=C(CN=[N+]=[N-])C(=O)c2ccccc2C1=O"
[reply] > 10 µM

[ask] Recorded IC50 for "COC1=C(Cn2cc(-c3ccc(C)cc3)nn2)C(=O)c2ccccc2C1=O" with SF295 (human glioblastoma cells), please?
[reply] > 10 µM

---

- TEST SUMMARY: MTT cytotoxicity, L929 normal cells
- Format: cell-based, mouse
- EXPERIMENTAL SETUP: mouse, normal cell line, 72 h exposure, three independent experiments, read-out: Cytotoxic activity IC50 (95% CI) L929
PROPERTY NAME: IC50 at 72 h

[ask] Which measured IC50 at 72 h value corresponds to "COC1=C(Cn2cc(C[Se]c3ccc(OC)cc3)nn2)C(=O)c2ccccc2C1=O" ?
[reply] > 10 µM

[ask] State the recorded IC50 at 72 h for this entry: "COC1=C(Cn2cc(C[Se]c3ccccc3)nn2)C(=O)c2ccccc2C1=O"
[reply] > 10 µM

[ask] Item "COC1=C(Cn2cc(-c3ccc(Br)cc3)nn2)C(=O)c2ccccc2C1=O" has what recorded IC50 at 72 h?
[reply] > 10 µM

---

I'd be grateful if you could share measured melting point for these entries.

[ask] Entry "COC1=C(Cn2cc(C[Se]c3ccccc3)nn2)C(=O)c2ccccc2C1=O" has what melting point?
[reply] 69 to 71 °C

[ask] Can you share its melting point? I mean this compound: CCCC[Se]Cc1cn(C2C3=C(OC(C)(C)C2Br)c2ccccc2C(=O)C3=O)nn1 (stereo not shown)
[reply] 123.1 to 124.4 °C

[ask] Value lookup for melting point; key = "COC1=C(Cn2cc(-c3ccc([N+](=O)[O-])cc3)nn2)C(=O)c2ccccc2C1=O"
[reply] 205.8 to 206.7 °C

[ask] Reported melting point for CC1(C)OC2=C(C(=O)C(=O)c3ccccc32)C(n2cc(C[Se]c3cccs3)nn2)C1Br (stereo not shown) : what is it?
[reply] 104.3 to 108.6 °C

---

Assignment: determine reported melting point for the given molecules.

[ask] Which melting point value is on record for CC1(C)OC2=C(C(=O)C(=O)c3ccccc32)C(n2cc(CSc3ccccc3)nn2)C1Br (centres unmarked) ?
[reply] 119.5 to 121.4 °C

[ask] Tell me the measured melting point of "O=C1C=C([Se]c2ccc(Cl)cc2)C(=O)c2ccccc21" , please.
[reply] 154.8 to 155.7 °C

[ask] Entry "COC1=C(Cn2cc(-c3ccc(OC)cc3)nn2)C(=O)c2ccccc2C1=O" has what melting point?
[reply] 149.3 to 150.7 °C

[ask] I have this molecule here, "COC1=C(Cn2cc(-c3ccc(C)cc3)nn2)C(=O)c2ccccc2C1=O" , and I need its recorded melting point.
[reply] 123.1 to 124.5 °C

[ask] Value lookup for melting point; key = CC1(C)OC2=C(C(=O)C(=O)c3ccccc32)C(n2cc(C[Se]c3ccc(Cl)cc3)nn2)C1Br (centres unmarked)
[reply] 185.3 to 187.1 °C

[ask] Report melting point for CC1(C)OC2=C(C(=O)C(=O)c3ccccc32)C(n2cc(C[Se]c3ccc(F)cc3)nn2)C1Br (centres unmarked) please.
[reply] 187.1 to 190 °C

[ask] Would you mind telling me what melting point value was observed for "O=C1C=C([Se]c2ccc(F)cc2)C(=O)c2ccccc21" ?
[reply] 139.2 to 139.9 °C

[ask] What melting point value was documented for this molecule, "COc1ccc([Se]C2=CC(=O)c3ccccc3C2=O)cc1" ?
[reply] 140.7 to 148.3 °C

[ask] melting point for "COC1=C(Cn2cc(-c3ccc(Br)cc3)nn2)C(=O)c2ccccc2C1=O" ?
[reply] 174.1 to 175 °C

[ask] Given the entry "COC1=C(Cn2cc(-c3ccccc3)nn2)C(=O)c2ccccc2C1=O" , report its measured melting point.
[reply] 103.8 to 104.7 °C

[ask] Looking for the measured melting point of COc1ccc([Se]Cc2cn(C3C4=C(OC(C)(C)C3Br)c3ccccc3C(=O)C4=O)nn2)cc1 (centres unmarked) , can you help?
[reply] 113.5 to 114.6 °C

---

- Test system: SF295 (human glioblastoma cells)
- TEST SUMMARY: MTT cytotoxicity, SF295 cells
- Format: cell-based
- EXPERIMENTAL SETUP: Homo sapiens, SF-295, 72 h exposure, three independent experiments, read-out: Cytotoxic activity IC50 (95% CI) SF295
PROPERTY NAME: pIC50
Please report pIC50 as the negative decimal logarithm of the molar concentration, giving only the number.

[ask] Bench note: what pIC50 did CC1(C)OC2=C(C(=O)C(=O)c3ccccc32)C(n2cc(C[Se]c3ccc(Cl)cc3)nn2)C1Br (centres unmarked) [Compound 17] show?
[reply] 5.59

[ask] Could you share which pIC50 value was measured for CCCC[Se]Cc1cn(C2C3=C(OC(C)(C)C2Br)c2ccccc2C(=O)C3=O)nn1 (centres unmarked) [Compound 23] ?
[reply] 5.46

[ask] Given CC1(C)OC2=C(C(=O)C(=O)c3ccccc32)C(n2cc(C[Se]c3cccs3)nn2)C1Br (centres unmarked) [Compound 22] , state its recorded pIC50.
[reply] 5.67

[ask] # get_value(readout='pIC50', item= CC1(C)OC2=C(C(=O)C(=O)c3ccccc32)C(n2cc(C[Se]c3ccc(F)cc3)nn2)C1Br (centres unmarked) [Compound 18] )
[reply] 5.83

[ask] May I ask what pIC50 has been recorded for COc1ccc([Se]Cc2cn(C3C4=C(OC(C)(C)C3Br)c3ccccc3C(=O)C4=O)nn2)cc1 (centres unmarked) [Compound 19] ?
[reply] 5.76

---

- TEST SUMMARY: MTT cytotoxicity, L929 normal cells
- Format: cell-based, mouse
- EXPERIMENTAL SETUP: mouse, normal cell line, 72 h exposure, three independent experiments, read-out: Cytotoxic activity IC50 (95% CI) L929
PROPERTY NAME: IC50 at 72 h

[ask] What IC50 at 72 h value was documented for this compound, CC1(C)OC2=C(C(=O)C(=O)c3ccccc32)C(n2cc(C[Se]c3cccs3)nn2)C1Br (stereo not shown) ?
[reply] 3.16 µM

[ask] Look up IC50 at 72 h for this compound: "COC1=C(CN=[N+]=[N-])C(=O)c2ccccc2C1=O"
[reply] > 10 µM

[ask] Sample "COC1=C(Cn2cc(-c3ccc([N+](=O)[O-])cc3)nn2)C(=O)c2ccccc2C1=O" — what was its IC50 at 72 h?
[reply] > 10 µM

[ask] Tell me the measured IC50 at 72 h of "COc1ccc([Se]C2=CC(=O)c3ccccc3C2=O)cc1" , please.
[reply] > 10 µM

[ask] Need IC50 at 72 h of CC1(C)OC2=C(C(=O)C(=O)c3ccccc32)C(n2cc(C[Se]c3ccc(Cl)cc3)nn2)C1Br (stereo not shown) , thanks.
[reply] 0.52 µM

[ask] Give the measured IC50 at 72 h of "COC1=C(Cn2cc(-c3ccc(OC)cc3)nn2)C(=O)c2ccccc2C1=O" .
[reply] > 10 µM

[ask] Entry "O=C1C=C([Se]c2ccc(F)cc2)C(=O)c2ccccc21" : reported IC50 at 72 h = ?
[reply] > 10 µM

[ask] Look at this compound and give its reported IC50 at 72 h. "O=C1C=C([Se]c2ccc(Cl)cc2)C(=O)c2ccccc21"
[reply] > 10 µM

[ask] Quick one: IC50 at 72 h for COc1cccc2c1C(=O)c1c(O)c3c(c(O)c1C2=O)C[C@@](O)(C(=O)CO)C[C@@H]3O[C@H]1C[C@H](N)[C@H](O)[C@H](C)O1 [DOXO, Doxorubicin, reference compound] ?
[reply] 1.72 µM

[ask] Need IC50 at 72 h, item COc1ccc([Se]Cc2cn(C3C4=C(OC(C)(C)C3Br)c3ccccc3C(=O)C4=O)nn2)cc1 (stereo not shown)
[reply] 0.68 µM

[ask] Look up IC50 at 72 h: CCCC[Se]Cc1cn(C2C3=C(OC(C)(C)C2Br)c2ccccc2C(=O)C3=O)nn1 (stereo not shown)
[reply] 2.12 µM

[ask] Can you look up the measured IC50 at 72 h of CC1(C)OC2=C(C(=O)C(=O)c3ccccc32)C(n2cc(C[Se]c3ccc(F)cc3)nn2)C1Br (stereo not shown) for me?
[reply] 0.36 µM

[ask] Quick one: IC50 at 72 h for "COC1=C(Cn2cc(-c3ccc(C)cc3)nn2)C(=O)c2ccccc2C1=O" ?
[reply] > 10 µM

[ask] What measured IC50 at 72 h goes with "COC1=C(Cn2cc(-c3ccccc3)nn2)C(=O)c2ccccc2C1=O" ?
[reply] > 10 µM

[ask] Request the reported IC50 at 72 h associated with "O=C1C=C([Se]c2ccccc2)C(=O)c2ccccc21"
[reply] > 10 µM

[ask] Could you tell me which IC50 at 72 h is on file for CC1(C)OC2=C(C(=O)C(=O)c3ccccc32)C(n2cc(CSc3ccccc3)nn2)C1Br (stereo not shown) ?
[reply] 0.84 µM
